Just for reference, patent US5151502A is where these values come from.

- assayed target: membrane AII receptor (Bos taurus)
measured attribute: Kd (nM)
Expressed in nM, but write only the number.

# returns recorded Kd (system: membrane AII receptor (Bos taurus)) for CCCCc1nc(Cl)c(CO)n1Cc1ccc(-c2ccccc2-c2nn[nH]n2)cc1
202

====

- assayed target: soluble AII receptor (Bos taurus, UniProt P25104)
- Sequence (P25104 1-359): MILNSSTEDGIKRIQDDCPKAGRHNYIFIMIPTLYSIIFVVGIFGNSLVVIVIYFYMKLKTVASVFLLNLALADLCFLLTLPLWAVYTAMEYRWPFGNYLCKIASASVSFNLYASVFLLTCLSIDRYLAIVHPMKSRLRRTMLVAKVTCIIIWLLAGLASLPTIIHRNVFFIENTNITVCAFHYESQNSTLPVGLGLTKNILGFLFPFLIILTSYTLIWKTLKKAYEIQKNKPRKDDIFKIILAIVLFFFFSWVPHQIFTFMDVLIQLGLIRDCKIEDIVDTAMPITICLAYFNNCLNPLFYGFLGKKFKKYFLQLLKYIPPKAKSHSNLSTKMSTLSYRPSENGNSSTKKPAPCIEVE
measured attribute: Ki

What measured Ki goes with Cc1cc(Cn2cnc3c2CC(C(=O)O)N(C(=O)C(c2ccccc2)c2ccccc2)C3)ccc1N (stereo not shown) [PD123177] ?
> 100 µM

====

- assayed target: soluble AII receptor (Bos taurus, UniProt P25104)
- Sequence (P25104 1-359): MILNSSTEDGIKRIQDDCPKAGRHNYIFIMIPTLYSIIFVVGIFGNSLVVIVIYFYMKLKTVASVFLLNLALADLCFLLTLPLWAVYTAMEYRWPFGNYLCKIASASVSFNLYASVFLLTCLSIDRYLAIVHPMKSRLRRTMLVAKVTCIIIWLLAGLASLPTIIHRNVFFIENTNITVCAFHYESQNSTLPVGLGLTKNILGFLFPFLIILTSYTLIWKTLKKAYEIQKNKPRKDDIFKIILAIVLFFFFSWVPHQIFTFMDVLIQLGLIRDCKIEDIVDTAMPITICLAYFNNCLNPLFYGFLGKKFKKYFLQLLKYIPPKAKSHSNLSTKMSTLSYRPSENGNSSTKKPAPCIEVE
measured attribute: IC50

Fill in: IC50 of O[C@H](CS)[C@H](O)CS (racemic) is ___
500 to 1000 µM
